- target: NRAS G12C (Homo sapiens, UniProt P01111+P62937, G12C)
- Sequence (P01111 whole entry G12C): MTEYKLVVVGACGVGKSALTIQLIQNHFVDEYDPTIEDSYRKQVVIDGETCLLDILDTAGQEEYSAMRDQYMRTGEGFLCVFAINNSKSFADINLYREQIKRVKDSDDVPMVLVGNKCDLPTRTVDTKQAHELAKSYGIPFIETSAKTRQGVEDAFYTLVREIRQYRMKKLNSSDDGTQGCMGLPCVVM
- Sequence (P62937 whole entry): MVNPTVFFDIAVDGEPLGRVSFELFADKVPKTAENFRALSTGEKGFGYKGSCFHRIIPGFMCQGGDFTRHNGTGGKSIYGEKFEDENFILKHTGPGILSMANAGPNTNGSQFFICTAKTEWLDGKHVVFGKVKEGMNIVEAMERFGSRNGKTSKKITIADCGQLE
- experiment: Disruption of BRAF RBD interaction with Ras (FRET / MOA assay, with Cyclophilin A)
- Assay type: biochemical
- recorded.conditions: NRAS G12C; read-out: NRAS G12C FRET data IC50
pIC50: −log10 of the molar value.
reported.property: pIC50

For orientation, consider the following solved cases.
INSERT INTO assay_data (compound, target, reported_property, result) VALUES
  ('CCn1c(-c2cccnc2[C@H](C)OC)c2c3cc(ccc31)-c1csc(n1)C[C@H](NC(=O)[C@H](C(C)C)N(C)C(=O)N1CC[C@H]1C(=O)NC)C(=O)N1CC(C)C[C@H](N1)C(=O)OCC(C)(C)C2 (stereo partly shown) [Example A282]', 'NRAS G12C (Homo sapiens, UniProt P01111+P62937, G12C)', 'pIC50', '6.00 to 7.00'),
  ('C=CC(=O)N1CC(OC[C@H](C(=O)N[C@H]2Cc3cccc(c3)-c3ccc4c(c3)c(c(-c3cccnc3[C@H](C)OC)n4CC)CC(C)(C)COC(=O)[C@@H]3CCCN(N3)C2=O)C(C)C)C1 (racemic) [Example A484]', 'NRAS G12C (Homo sapiens, UniProt P01111+P62937, G12C)', 'pIC50', '5.00 to 6.00'),
  ('CCn1c(-c2cc(N3CCN(C)CC3)cnc2[C@H](C)OC)c2c3cc(ccc31)-c1csc(n1)C[C@H](NC(=O)[C@H](C(C)C)N(C)C(=O)N1C[C@@H](C)N(C)C[C@H]1C)C(=O)N1CCC[C@H](N1)C(=O)OCC(C)(C)C2 (atropisomer, axis not shown) [Example A476]', 'NRAS G12C (Homo sapiens, UniProt P01111+P62937, G12C)', 'pIC50', '7.00 to 8.00');

Next:
Input line: Consider the compound CCn1c(-c2cccnc2[C@H](C)OC)c2c3cc(ccc31)-c1cccc(c1)C[C@H](NC(=O)[C@H](C(C)C)N(C)C(=O)[C@H]1CCN(C(=O)CN(C)C)C1)C(=O)N1CCC[C@H](N1)C(=O)OCC(C)(C)C2 [Example A96] and give its recorded pIC50.
Output line: 6.00 to 7.00

Cited source: patent US20230233569A1
